Reported Ratio is given for each of the following molecules.
Experiment: Water solubility relative to Paclitaxel solubility
Assay type: ADME
Conditions: buffer
reported_metric: Ratio

substance_smiles	meas_value
CC(=O)O[C@@]12CO[C@@H]1C[C@H](O)[C@@]1(C)C(=O)[C@H](O)C3=C(C)[C@@H](OC(=O)[C@H](O)[C@@H](NC(=O)OCC(C)C)C(C)(C)C)C[C@@](O)([C@@H](OC(=O)c4ccccc4)[C@H]21)C3(C)C	93
CC(=O)O[C@@]12CO[C@@H]1C[C@H](O)[C@@]1(C)C(=O)[C@H](O)C3=C(C)[C@@H](OC(=O)[C@H](O)[C@@H](NC(=O)NC(C)(C)C)C(C)(C)C)C[C@@](O)([C@@H](OC(=O)c4ccccc4)[C@H]21)C3(C)C	97
CC(=O)O[C@@]12CO[C@@H]1C[C@H](O)[C@@]1(C)C(=O)[C@H](O)C3=C(C)[C@@H](OC(=O)[C@H](O)[C@@H](NC(=O)c4ccccc4)C(C)(C)C)C[C@@](O)([C@@H](OC(=O)c4ccccc4)[C@H]21)C3(C)C	9.3
CC(=O)O[C@@]12CO[C@@H]1C[C@H](O)[C@@]1(C)C(=O)[C@H](O)C3=C(C)[C@@H](OC(=O)[C@H](O)[C@@H](NC(=O)CC(C)(C)C)C(C)(C)C)C[C@@](O)([C@@H](OC(=O)c4ccccc4)[C@H]21)C3(C)C	87
CC(=O)O[C@H]1C(=O)[C@@]2(C)[C@H]([C@H](OC(=O)c3ccccc3)[C@]3(O)C[C@H](OC(=O)[C@H](O)[C@@H](NC(=O)c4ccccc4)c4ccccc4)C(C)=C1C3(C)C)[C@]1(OC(C)=O)CO[C@@H]1C[C@@H]2O	1
CCCCOC(=O)N[C@H]([C@@H](O)C(=O)O[C@H]1C[C@@]2(O)[C@@H](OC(=O)c3ccccc3)[C@@H]3[C@]4(OC(C)=O)CO[C@@H]4C[C@H](O)[C@@]3(C)C(=O)[C@H](O)C(=C1C)C2(C)C)C(C)(C)C	90
